Exercise: state measured IC50 for each of the binders provided.
# measured.target: VIP receptor on human cells (human)
# assay.overview: competition with 125I-VIP on HT29 cells
No end group written: not given here.
Numbers only, in nM.

Examples from the recorded data:
• HSDAVFTDNYTRLRKQMAVKKYLNSILN-NH2 [Vasoactive intestinal peptide (VIP)] = 1.2
• AGCHSDAVFTDNYTRLRKQMAVKKYLNSILN-NH2 (also: non-radioactive ReO complexed to the chelating moiety) [ReO-complexed P915] = 7
• HSDAVFTDNYTRLRKQMAVKKYLNSILNKGC ((ε-K): lysine 29 linked through its ε-amino group; C-terminal amide; non-radioactive ReO complexed to the chelating moiety) [ReO-complexed P887] = 6.6
• HSDAVFTDNYTRLRKQMAVKKYLNSILNGGC-NH2 (also: non-radioactive ReO complexed to the chelating moiety) [ReO-complexed P916] = 8.5

# next binder below
Input HSDAVFTDNYTRLRKQMAVKKYLNSILNC (C-terminal C(BAT): S-(N6,N9-bis(2-mercapto-2-methylpropyl)-6,9-diazanonan-1-yl)cysteine; C-terminal amide; non-radioactive ReO complexed to the chelating moiety) [ReO-complexed P917] . Output IC50: 2.2
